Attribution: ChEMBL document CHEMBL3045942

# Test system: Tobacco mosaic virus
# Assay: In vivo antiviral activity against Tobacco mosaic virus (TMV) inoculated right side of Nicotiana tabacum L. leaves assessed as protection effect at 100 ug/mL preincubated 12 hr before viral challenge measured after 3 to 4 days
# Assay type: functional
Readout Type: Activity (%)
Please respond with the number in % and leave the unit unwritten.

Given the molecule COc1cc2c3c(c4cc(OC)c(OC)cc4c2cc1OC)CN1CCC[C@H]1C3 [(S)-TYLOPHORINE] , what is its reported Activity?
28.6

# lookup: Activity of COc1ccc2c3c(c4cc(OC)c(OC)cc4c2c1)C[C@@H]1CCCN1C3
28.4

What value of measured Activity is listed for COc1cc2c3c(c4cc(OC)c(OC)cc4c2cc1OC)NC[C@H]1CCCN1C3 ?
33.7

====

# Activity per record follows
# Test system: Tobacco mosaic virus
# Assay: In vivo antiviral activity against Tobacco mosaic virus (TMV) inoculated left side of Nicotiana tabacum L. leaves assessed as inactivation effect at 500 ug/mL co-incubated with virus measured after 3 to 4 days
# Format: functional
// return numeric value only (unit: %, not printed)

These recorded examples may help you get a feel for the data.
compound="COc1cc2c3c(c4cc(OC)c(OC)cc4c2cc1OC)CN1CCC[C@H]1C3 [(S)-TYLOPHORINE]" measurement=50.5
compound=COc1cc2cc(CN3CCC[C@H]3C)c3cc(OC)c(OC)cc3c2cc1OC measurement=25.2
compound=COc1cc2c3c(c4cc(OC)c(OC)cc4c2cc1OC)NC(=O)[C@@H]1CCCN1C3 measurement=32.9

Proceed to the following item.
State the recorded Activity for this entry: COc1ccc2c3c(c4cc(OC)c(OC)cc4c2c1)C[C@@H]1CCCN1C3
51.1

====

# Test system: Tobacco mosaic virus
# Assay: In vivo antiviral activity against Tobacco mosaic virus (TMV) inoculated left side of Nicotiana tabacum L. leaves assessed as inactivation effect at 100 ug/mL co-incubated with virus measured after 3 to 4 days
# Format: functional
Readout Type: Activity (%)
Write the value in % as a bare number.

Below are worked cases with known answers.
smiles_repr=COc1ccc2c3c(c4cc(OC)c(OC)cc4c2c1)CN1CCC[C@@H]1C3 experimental_target="Tobacco mosaic virus" readout_type=Activity measurement_unit=% measurement=23.6
smiles_repr=COc1cc2c3c(c4cc(OC)c(OC)cc4c2cc1OC)NC(=O)[C@@H]1CCCN1C3 experimental_target="Tobacco mosaic virus" readout_type=Activity measurement_unit=% measurement=22.2
smiles_repr=COc1cc2c3c(c4cc(OC)c(OC)cc4c2cc1OC)C(=O)N1CCC[C@H]1C3 experimental_target="Tobacco mosaic virus" readout_type=Activity measurement_unit=% measurement=20.5
smiles_repr=COc1cc2cc(CN3CCC[C@H]3C)c3cc(OC)c(OC)cc3c2cc1OC experimental_target="Tobacco mosaic virus" readout_type=Activity measurement_unit=% measurement=0

Fill in: Activity of COc1cc2c3c(c4cc(OC)c(OC)cc4c2cc1OC)[C@H](O)[C@@H]1CCCN1C3 is ___
32.9

====

# Test system: Tobacco mosaic virus
# Assay: In vivo antiviral activity against Tobacco mosaic virus (TMV) inoculated right side of Nicotiana tabacum L. leaves assessed as protection effect at 100 ug/mL preincubated 12 hr before viral challenge measured after 3 to 4 days
# Format: functional
# reported Activity; entries follow
Note: unit % is implicit; provide only the numeric part.

Worked examples follow.
compound="COc1ccc2c3c(c4cc(OC)c(OC)cc4c2c1)C[C@H]1CCCN1C3 [(-)-ANTOFINE]" experimental_target="Tobacco mosaic virus" measurement_unit=% measurement=20.4
compound=COc1cc2c3c(c4cc(OC)c(OC)cc4c2cc1OC)C(=O)N1CCC[C@H]1C3 experimental_target="Tobacco mosaic virus" measurement_unit=% measurement=23.4
compound=COc1ccc2c3c(c4cc(OC)c(OC)cc4c2c1)CN1CCC[C@H]1[C@H]3O experimental_target="Tobacco mosaic virus" measurement_unit=% measurement=24.5

Please find the next compound below.
Any idea what its Activity is? The compound is COc1cc2c3c(c4cc(OC)c(OC)cc4c2cc1OC)NC(=O)[C@H]1CCCN1C3
19.7
